Tested on: LNCaP xenografts
Test: Ex vivo biodistribution and blocking studies in mice bearing LNCaP xenografts
Settings: 1 h after injection, unblocked
Assay readout: spleen uptake (%ID/g)
Give bare numbers, in %ID/g.

Some compounds with recorded spleen uptake:
C[N+](C)(Cc1cn(Cc2ccc(C(=O)NCCCC[C@H](NC(=O)N[C@@H](CCC(=O)O)C(=O)O)C(=O)O)cc2)nn1)C[B-](F)(F)F [^18F-2]: 5.01
O=C(O)CCC(NC(=O)NC(CCCCNC(=O)c1ccc([18F])nc1)C(=O)O)C(=O)O (stereo not shown) [^18F-DCFPyL, reference compound]: 3.98
C[N+](C)(Cc1cn(CC(=O)N[C@@H](CCC(=O)O)C(=O)NCCCC[C@H](NC(=O)[C@H](CCC(=O)O)NC(=O)Cn2cc(C[N+](C)(C)C[B-](F)(F)F)nn2)C(=O)NC[C@H]2CC[C@H](C(=O)N[C@@H](Cc3ccc4ccccc4c3)C(=O)NCCCC[C@H](NC(=O)N[C@@H](CCC(=O)O)C(=O)O)C(=O)O)CC2)nn1)C[B-](F)(F)F [^18F-8]: 6.47

Note: attention shifts to another entry.
Query: Data request, read-out spleen uptake, for O=C(O)CC[C@H](NC(=O)N[C@@H](CCCCNC(=O)c1ccc(Cn2cc(C[n+]3ccc([B-](F)(F)F)cc3)nn2)nc1)C(=O)O)C(=O)O [^18F-4]
Result: 3.36

---

System: LNCaP xenografts
Test: Ex vivo biodistribution and blocking studies in mice bearing LNCaP xenografts
Settings: 1 h blocked (coinjection of DCFPyL 0.5 mg)
Method: Imaging and biodistribution experiments were performed using NODSCID IL2RγKO male mice. […] For biodistribution and blocking studies, the mice were injected with 1–3 MBq of radiotracer. […] Blood was withdrawn by cardiac puncture, and the organs and tissues of interest were collected, weighed, and counted using an automatic γ-counter (PerkinElmer). Uptake values were expressed as the percentage of the injected dose per gram of tissue (%ID/g). […]
Assignment: determine reported T/B (tumor-to-blood ratio) for the given compounds.
Give bare numbers.

Some compounds with recorded T/B (tumor-to-blood ratio):
C[N+](C)(Cc1cn(CC(=O)NCCOCCOCCC(=O)N[C@@H](Cc2ccc3ccccc3c2)C(=O)NCCCC[C@H](NC(=O)N[C@@H](CCC(=O)O)C(=O)O)C(=O)O)nn1)C[B-](F)(F)F [^18F-7]: 1.56
C[N+](C)(Cc1cn(Cc2ccc(C(=O)NCCCC[C@H](NC(=O)N[C@@H](CCC(=O)O)C(=O)O)C(=O)O)cn2)nn1)C[B-](F)(F)F [^18F-3]: 1.17
O=C(O)CC[C@H](NC(=O)N[C@@H](CCCCNC(=O)[C@H](Cc1ccc2ccccc2c1)NC(=O)[C@H]1CC[C@H](CNC(=O)Cn2cc(C[n+]3ccc([B-](F)(F)F)cc3)nn2)CC1)C(=O)O)C(=O)O [^18F-6]: 0.72
C[N+](C)(Cc1cn(Cc2ccc(C(=O)NCCCC[C@H](NC(=O)N[C@@H](CCC(=O)O)C(=O)O)C(=O)O)cc2)nn1)C[B-](F)(F)F [^18F-2]: 0.77
C[N+](C)(Cc1cn(CC(=O)N[C@@H](CCC(=O)O)C(=O)NCCCC[C@H](NC(=O)[C@H](CCC(=O)O)NC(=O)Cn2cc(C[N+](C)(C)C[B-](F)(F)F)nn2)C(=O)NC[C@H]2CC[C@H](C(=O)N[C@@H](Cc3ccc4ccccc4c3)C(=O)NCCCC[C@H](NC(=O)N[C@@H](CCC(=O)O)C(=O)O)C(=O)O)CC2)nn1)C[B-](F)(F)F [^18F-8]: 0.92

Each compound below has a recorded value; state its T/B (tumor-to-blood ratio).
1. C[N+](C)(Cc1cn(CC(=O)NC[C@H]2CC[C@H](C(=O)N[C@@H](Cc3ccc4ccccc4c3)C(=O)NCCCC[C@H](NC(=O)N[C@@H](CCC(=O)O)C(=O)O)C(=O)O)CC2)nn1)C[B-](F)(F)F [^18F-5]
2. O=C(O)CC[C@H](NC(=O)N[C@@H](CCCCNC(=O)c1ccc(Cn2cc(C[n+]3ccc([B-](F)(F)F)cc3)nn2)nc1)C(=O)O)C(=O)O [^18F-4]
3. C[N+](C)(Cc1ccc(C(=O)NCCCC[C@H](NC(=O)N[C@@H](CCC(=O)O)C(=O)O)C(=O)O)cc1)C[B-](F)(F)F [^18F-1]

Result:
1. 0.95
2. 0.75
3. 0.91
